- target: Myelin basic protein (Mus musculus) (UniProt P04370)
- Sequence (P04370 whole entry): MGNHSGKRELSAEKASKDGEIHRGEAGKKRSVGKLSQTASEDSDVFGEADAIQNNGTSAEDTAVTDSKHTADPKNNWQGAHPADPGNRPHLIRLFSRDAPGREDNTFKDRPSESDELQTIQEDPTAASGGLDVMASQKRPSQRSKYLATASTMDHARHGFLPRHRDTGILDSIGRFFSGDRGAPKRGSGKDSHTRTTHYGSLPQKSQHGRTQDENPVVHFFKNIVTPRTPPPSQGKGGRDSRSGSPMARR
- procedure details: Binding affinity to corpus collosum myelin in central nervous system of mouse […] by fluorescent microscopy
- Assay type: tissue-based
- condition description: Corpus callosum
The source made the active and inactive calls. The calls are words filed in the database; no cut-off is given here.
Assign a class; possible classes are active, inactive

Field: example entries. Status: answers known.
• CCN(CC)c1ccc(-c2ccc3cc(-c4nc5ccccc5s4)c(=O)oc3c2)cc1 = active
• O=c1oc2ccccc2cc1-c1ccccc1 = inactive

In the following, a different compound is considered.
Write down the call the test reported for this compound. Item: CN(C)c1ccc(-c2cc3ccc(OCCF)cc3oc2=O)cc1
active

* * *

- procedure details: Half life of the compound in mouse brain
- Format: ADME, tissue-based
measurement kind: half-life (min)
# number only, unit min dropped from output

So what's the measured half-life for this one? CN(C)c1ccc(-c2cc3ccc(OCCCF)cc3oc2=O)cc1
20

* * *

- target: UniProtKB P04370
- procedure details: Binding affinity to corpus collosum myelin in central nervous system of mouse […] by fluorescent microscopy
- Type: tissue-based
- condition description: Corpus callosum
Calls of active or inactive are those of the source. The rule behind the calls is not given here.
Assign a class; possible classes are active, inactive

Field: example entries. Status: answers known.
- CCN(CC)c1ccc(-c2ccc3cc(-c4ccc(N)cc4)c(=O)oc3c2)cc1: active
- O=c1oc2ccccc2cc1-c1ccc([N+](=O)[O-])cc1: inactive
- O=c1oc2ccccc2cc1O: inactive
- Nc1ccc2c(C(F)(F)F)cc(=O)oc2c1: inactive
- CN(C)c1ccc2c(C(F)(F)F)cc(=O)oc2c1: inactive

Write down the call the test reported for this compound. Item: CCN(CC)c1ccc(-c2ccc3cc(C(=O)c4cccs4)c(=O)oc3c2)cc1
active

* * *

- target: Myelin basic protein (Mus musculus)
- procedure details: Binding affinity to corpus collosum myelin in central nervous system of mouse […] by fluorescent microscopy
- Format: tissue-based
- condition description: Corpus callosum
The source made the active and inactive calls. The rule behind the calls is not given here.
Assign a class; possible classes are active, inactive

* CN(C)c1ccc(-c2cc3cc(OCCCF)ccc3oc2=O)cc1 | active
* CN(C)c1ccc(-c2cc3ccccc3oc2=O)cc1 | active
* CN(C)c1ccc(-c2cc3ccc(O)cc3oc2=O)cc1 | active
* CN(C)c1ccc(-c2cc3cc(OCCF)ccc3oc2=O)cc1 | active
* CC(=O)Oc1ccc2cc(-c3ccc(N(C)C)cc3)c(=O)oc2c1 | active

Write down the call the test reported for this molecule. Item: Nc1ccc(-c2cc3ccccc3oc2=O)cc1
active

Let us now turn to CN(C)c1ccc(-c2cc3cc(F)ccc3oc2=O)cc1
active

* * *

- procedure details: Lipophilicity, log P of the compound
- Format: physicochemical
- condition description: octanol/water
measurement kind: logP
Respond with the number and no other words.

So what's the measured logP for this one? CN(C)c1ccc(-c2cc3ccc(OCCCF)cc3oc2=O)cc1
3.82

* * *

- target: Myelin basic protein (Mus musculus) (UniProt P04370)
- procedure details: Binding affinity to corpus collosum myelin in central nervous system of mouse […] by fluorescent microscopy
- Assay type: tissue-based
- condition description: Corpus callosum
Calls of active or inactive are those of the source. The calls are words filed in the database; no cut-off is given here.
measurement kind: Activity

Please review the following examples before continuing.
• Cc1cc(=O)oc2ccccc12 = inactive
• CN(C)c1ccc(-c2cc3cc(O)ccc3oc2=O)cc1 = Active
• CCN(CC)c1ccc(-c2ccc3cc(-c4ccc([N+](=O)[O-])cc4)c(=O)oc3c2)cc1 = Active
• Nc1cc(=O)oc2ccccc12 = inactive
• Nc1cc2ccccc2oc1=O = inactive
• CCN(CC)c1ccc(-c2ccc3cc(-c4nc5ccccc5n4C)c(=O)oc3c2)cc1 = Active
• CCN(CC)c1ccc(-c2ccc3cc(-c4nc5ccccc5[nH]4)c(=O)oc3c2)cc1 = Active
• O=c1ccc2ccccc2o1 = inactive

So what's the measured Activity for this one? O=c1cc(O)c2ccccc2o1
inactive

Let us now turn to CCN(CC)c1ccc(-c2ccc3cc(-c4ccc(CBr)cc4)c(=O)oc3c2)cc1
Active

Let us now turn to O=c1cc(C(F)(F)F)c2ccc(O)cc2o1
inactive

Let us now turn to O=c1oc2cc(O)ccc2cc1-c1ccccc1
inactive

Let us now turn to COc1ccc2ccc(=O)oc2c1
inactive

* * *

- target: Myelin basic protein (Mus musculus) (UniProt P04370)
- procedure details: Binding affinity to corpus collosum myelin in central nervous system of mouse […] by fluorescent microscopy
- Format: tissue-based
- condition description: Corpus callosum
Active and inactive are the calls of the source. The rule behind the calls is not given here.
Assign a class; possible classes are y for active, n for inactive

- CC(=O)Oc1ccc2oc(=O)c(-c3ccc(N(C)C)cc3)cc2c1: y

Write down the call the test reported for this molecule. Item: Cc1ccc2ccc(=O)oc2c1
n

Let us now turn to CN(C)c1ccc(-c2cc3ccc(OCCCF)cc3oc2=O)cc1
y

Let us now turn to Nc1ccc(-c2cc3cc(F)ccc3oc2=O)cc1
y

Let us now turn to O=c1oc2ccccc2c(O)c1Cc1c(O)c2ccccc2oc1=O
n

Let us now turn to O=c1oc2ccc(F)cc2cc1-c1ccc([N+](=O)[O-])cc1
n
